Values compiled from BindingDB's records for patent US20240360134.

study_target: Platelet-derived growth factor receptor beta (Homo sapiens)
procedure_summary: PDGFRβ LanthaScreen Assay
Use IC50 to assign classes; range list: low range: < 2 nM; mid range: ≥ 2 nM and < 3 nM; high range: ≥ 3 nM

compound: Cc1ncc(NC(=O)CN(CCCO)C2CCCC2)cc1Nc1nn(C)c2nc(Nc3cnn(C)c3)ncc12 [US20240360134, Example 80]
study_target: Platelet-derived growth factor receptor beta (Homo sapiens)
label_class: high range

compound: Cc1ncc(NC(=O)CN2CCC3(CC3)C2)cc1Nc1nn(C)c2nc(Nc3cnn(C)c3)ncc12 [US20240360134, Example 74]
study_target: Platelet-derived growth factor receptor beta (Homo sapiens)
label_class: low range

compound: COC(=O)C(C)(C)c1cccc(Nc2ncc3c(Nc4cc(C(=O)NCCN5CCCC5(C)C)cnc4C)nn(C)c3n2)c1 [US20240360134, Example 46]
study_target: Platelet-derived growth factor receptor beta (Homo sapiens)
label_class: high range

Query: Lab note: sort Cc1ncc(NC(=O)CN2CCC(F)(F)CC2)cc1Nc1nn(C)c2nc(Nc3cnn(C)c3)ncc12 [US20240360134, Example 72] into the matching IC50 band.
Reply: low range

Query: Lab note: sort Cc1ncc(NC(=O)CN2C[C@H](C)O[C@@H](C)C2)cc1Nc1nn(C)c2nc(Nc3cnn(C)c3)ncc12 (relative stereo) [US20240360134, Example 73] into the matching IC50 band.
Reply: mid range

Query: Lab note: sort COC(=O)Cc1cccc(Nc2ncc3c(Nc4cc(C(=O)NCCN5CCCC5(C)C)cnc4C)nn(C)c3n2)c1 [US20240360134, Example 43] into the matching IC50 band.
Reply: high range

Query: Lab note: sort Cc1ncc(NC(=O)CN2CCC(F)(F)C2)cc1Nc1nn(C)c2nc(Nc3cnn(C)c3)ncc12 [US20240360134, Example 75] into the matching IC50 band.
Reply: mid range

Query: Lab note: sort Cc1ncc(NC(=O)CN2C[C@@H](C)O[C@@H](C)C2)cc1Nc1nn(C)c2nc(Nc3cnn(C)c3)ncc12 [US20240360134, Example 78] into the matching IC50 band.
Reply: high range

###

study_target: Platelet-derived growth factor receptor beta (Homo sapiens, UniProt P09619)
Sequence (P09619 whole entry): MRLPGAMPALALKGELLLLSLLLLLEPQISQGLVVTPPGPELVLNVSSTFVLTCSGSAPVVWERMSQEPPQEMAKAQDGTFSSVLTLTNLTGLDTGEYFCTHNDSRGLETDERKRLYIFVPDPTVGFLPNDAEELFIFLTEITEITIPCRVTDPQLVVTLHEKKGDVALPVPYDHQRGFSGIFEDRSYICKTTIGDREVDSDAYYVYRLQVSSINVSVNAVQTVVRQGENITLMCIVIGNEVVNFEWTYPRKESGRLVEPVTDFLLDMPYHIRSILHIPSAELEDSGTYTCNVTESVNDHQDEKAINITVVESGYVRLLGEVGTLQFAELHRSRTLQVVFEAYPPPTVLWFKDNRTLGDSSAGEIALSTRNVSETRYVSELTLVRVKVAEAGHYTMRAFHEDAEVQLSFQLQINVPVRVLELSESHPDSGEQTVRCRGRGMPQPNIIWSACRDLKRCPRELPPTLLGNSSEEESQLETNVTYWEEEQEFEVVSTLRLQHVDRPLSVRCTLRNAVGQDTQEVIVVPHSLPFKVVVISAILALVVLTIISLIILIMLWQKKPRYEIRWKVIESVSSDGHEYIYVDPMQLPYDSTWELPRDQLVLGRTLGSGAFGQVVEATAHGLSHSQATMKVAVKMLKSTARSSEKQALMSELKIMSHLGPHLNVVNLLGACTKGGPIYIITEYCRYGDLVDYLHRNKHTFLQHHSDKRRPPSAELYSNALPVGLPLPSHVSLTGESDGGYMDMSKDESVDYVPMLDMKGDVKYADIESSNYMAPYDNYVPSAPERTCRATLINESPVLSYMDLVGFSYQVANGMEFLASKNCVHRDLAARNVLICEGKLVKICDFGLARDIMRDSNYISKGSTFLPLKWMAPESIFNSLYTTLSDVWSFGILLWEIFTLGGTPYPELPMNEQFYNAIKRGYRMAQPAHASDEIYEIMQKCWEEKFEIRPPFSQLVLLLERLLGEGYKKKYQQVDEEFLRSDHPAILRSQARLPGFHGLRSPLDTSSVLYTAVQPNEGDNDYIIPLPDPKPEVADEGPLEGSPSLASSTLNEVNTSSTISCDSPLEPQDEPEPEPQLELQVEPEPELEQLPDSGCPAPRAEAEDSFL
procedure_summary: PDGFRβ HTRF Assay
measure_name: IC50
Could you kindly put the unit after your number?

smiles_representation: COC(=O)Cc1cccc(Nc2ncc3c(Nc4cc(C(=O)NCCN5CCCC5(C)C)cnc4C)nn(C)c3n2)c1
observed_result: 0.54 nM

smiles_representation: Cc1ncc(NC(=O)CN2CCC(F)(F)CC2)cc1Nc1nn(C)c2nc(Nc3cnn(C)c3)ncc12
observed_result: 0.27 nM

smiles_representation: Cc1ncc(NC(=O)CN2CC(F)(F)C2)cc1Nc1nn(C)c2nc(Nc3cnn(C)c3)ncc12
observed_result: 0.42 nM

smiles_representation: Cc1ncc(NC(=O)CN(CCCO)C2CCCC2)cc1Nc1nn(C)c2nc(Nc3cnn(C)c3)ncc12
observed_result: 0.5 nM

Working through the 3 compounds below one at a time, give IC50 for each.
1. Cc1ncc(NC(=O)CN2C[C@@H](C)O[C@@H](C)C2)cc1Nc1nn(C)c2nc(Nc3cnn(C)c3)ncc12
2. Cc1ncc(NC(=O)CN2CCC(F)(F)C2)cc1Nc1nn(C)c2nc(Nc3cnn(C)c3)ncc12
3. Cc1ncc(NC(=O)CN2CCC3(CC3)C2)cc1Nc1nn(C)c2nc(Nc3cnn(C)c3)ncc12

Reply:
1: 0.59 nM; 2: 0.35 nM; 3: 0.23 nM
